# Test system: M14 melanoma
# EXPERIMENT_SUMMARY: NCI tumour cell line growth inhibition, 48 h
Kindly supply the reported TGI values for the records listed here.

Prompt line: Using the record for O=C1NC(=NCCc2ccccn2)S/C1=C\c1ccc2ncccc2c1 , report its TGI.
Response line: > 25 µM

Prompt line: Field request: TGI | item: O=C1CC2CC(CC3(CO3)C2)C1F (centres undefined)
Response line: > 100 µM

Prompt line: Bench note: what TGI did O=C1c2cc(F)ccc2-c2c1c1ccc([N+](=O)[O-])cc1c(=O)n2CCCBr show?
Response line: 46.3 µM

Prompt line: Give its TGI value. Item: CCN(CCO)CCNc1ccc(C)c2sc3ccccc3c(=O)c12
Response line: 3.23 µM

Prompt line: What value of measured TGI is listed for Cn1cc(-c2nnc(-c3ccc(Cl)cc3)[nH]c2=O)c2ccccc21 ?
Response line: > 100 µM

Prompt line: Name the recorded TGI for CC(C)C(=O)c1c(C(F)(F)F)n([O-])c2ccccc2[n+]1=O .
Response line: 3.76 µM

Prompt line: Which TGI reading was recorded for the compound Cn1cc(C2=C(c3cn(CCCCCO)c4ccccc34)C(=O)NC2=O)c2ccccc21 ?
Response line: > 25 µM

Prompt line: Quick one: TGI of O=C1[C@@H](O)[C@@H]2CCCC[C@@]23CCCN13 ?
Response line: > 100 µM

Prompt line: Requested read-out: TGI. Entry: Cc1cn(C2CCN(CC3COC(C)(C)O3)O2)c(=O)[nH]c1=O (centres undefined)
Response line: > 100 µM

Prompt line: Form field: reported TGI of O=C1/C(=C/c2ccc(O)c(O)c2)CC/C1=C\c1ccc(O)c(O)c1
Response line: 9.56 µM

Prompt line: What value of measured TGI is listed for CN1CC2=C(NC(=S)NC2c2ccccc2Cl)/C(=C/c2ccccc2Cl)C1 (centres undefined) ?
Response line: > 100 µM

Prompt line: Can you share its TGI? I mean this compound: CC(C)(C)n1c(=O)n2n(c1=O)C1c3cccc4cccc(c34)C2C2c3cccc4cccc(c34)C1n1c(=O)n(C(C)(C)C)c(=O)n12
Response line: > 100 µM

Prompt line: Look up TGI for this compound: NC(=O)Cn1c(=O)oc2cc(C(=O)CN3CCOCC3)ccc21
Response line: > 100 µM

Prompt line: Dear colleague, I am looking for the recorded TGI of the following compound: Cc1ccc(C(=O)Oc2ccc(/C=C3\CCC/C(=C\c4ccc(OC(=O)c5ccc(C)cc5)cc4)C3=O)cc2)cc1
Response line: > 100 µM

Prompt line: Report TGI for NC(N)=NS(=O)(=O)c1ccc(NC(=O)c2cccc3c(N)c4ccccc4nc23)cc1 please.
Response line: > 100 µM

Prompt line: Please look up its TGI: CC(=O)Nc1cc2nc3n(c2cc1C)CCC3OC(C)=O (centres undefined)
Response line: > 100 µM

Prompt line: Give its TGI value. Item: O=C1CC(CC(OCc2ccccc2)C(OCc2ccccc2)C(COCc2ccccc2)OCc2ccccc2)CC(=O)N1 (centres undefined)
Response line: > 100 µM

Prompt line: Give its TGI value. Item: C=C1C(=O)C2=CC1CCC(=O)C1(C)CCC(OC(C)=O)C(C)(C)C1CC2O (centres undefined)
Response line: 10.4 µM

Prompt line: Which TGI is listed for COc1cc(/C=C2\N=C(c3ccccc3)N(c3nc4ccc(Sc5ccccc5)cc4[nH]3)C2=O)cc(OC)c1OC ?
Response line: 49.7 µM

Prompt line: Would you mind telling me what TGI value was observed for CN(C)C(=NC#N)N(Cc1ccccc1)Cc1ccccc1 ?
Response line: > 100 µM

Prompt line: Consider the compound shown here: CCC12C=CCN3CCC4(c5cc(C(c6ccc(OC)cc6)C6Cc7ccccc7N6)c(OC)cc5N(C)C4C(O)(C(=O)OC)C1O)C32 (centres undefined) What is its recorded TGI?
Response line: > 100 µM

Prompt line: Give the measured TGI of CC(C)Cc1ccc(C(C)C(=O)NCc2ccc(Cn3c(=O)sn(CCCI)c3=O)cc2)cc1 (centres undefined) .
Response line: 1.34 µM

Prompt line: TGI for C=C1CC2(CCS(=O)(=O)c3ccccc32)OC1=O (centres undefined) ?
Response line: 20.3 µM

Prompt line: Fill in the blank: the reported TGI of O=c1[nH]c2c(c(=O)[nH]1)C(c1ccc([N+](=O)[O-])cc1)c1c([nH]c(=O)[nH]c1=O)O2 is ____.
Response line: > 100 µM

Prompt line: Could you tell me which TGI is on file for N#Cc1c(-c2ccc(Cl)cc2)c2c([nH]c1=O)-c1cc([N+](=O)[O-])ccc1CCC2 ?
Response line: 73.4 µM

Prompt line: // query TGI value for entry CN(C)CCS(=O)(=O)Nc1cc(-c2ccc3ncc(C#N)c(Nc4ccc(F)c(Cl)c4)c3c2)cnc1Cl
Response line: 1.27 µM

Prompt line: Could you share which TGI value was measured for CC1(C)CCC(C)(C)c2cc(NC(=O)c3ccc(C(=O)O)cc3)ccc21 ?
Response line: > 65.1 µM

Prompt line: Which TGI is reported for this compound? O=C(O)c1ccc([C@@H]2C(=O)N(O)[C@@H]3C=CC[C@@H]32)cc1
Response line: > 100 µM

Prompt line: I have this compound here, CC1=CC(=O)N(n2c(-c3ccccc3)n[nH]c2=O)C1=O , and I need its recorded TGI.
Response line: > 100 µM

FYI, the data here is from PubChem BioAssay (NCI).
